protocol-details: Induction of hemolysis in human RBC assessed as hemoglobin release after 1 hr by microtiter plate reader analysis
Assay type: cell-based, Erythrocyte
experimental-setup: erythrocyte, 1 h
Where a SMILES comes first, the peptide text is derived from it. [ ]: non-standard residue; d: D form. 3Abz = Nc1cccc(C(=O)O)c1; Orn = NCCC[CH](N)C(=O)O
recorded-endpoint: HC10 (µg/mL)

compound="N=C(N)NCCCC(N)C(=O)NC(Cc1c[nH]c2ccccc12)C(=O)Nc1cccc(C(=O)NC(CCCNC(=N)N)C(N)=O)c1 (centres undefined) (H-RW[3Abz]R-NH2; configuration not given here)" data_value=205
compound="N=C(N)NCCCC(NC(=O)C(CCCNC(=N)N)NC(=O)c1cccc(NC(=O)C(Cc2c[nH]c3ccccc23)NC(=O)C(N)Cc2c[nH]c3ccccc23)c1)C(N)=O (centres undefined) (H-WW[3Abz]RR-NH2; configuration not given here)" data_value=150
compound="NCCCC(NC(=O)C(Cc1c[nH]c2ccccc12)NC(=O)c1cccc(NC(=O)C(CCCN)NC(=O)C(CCCN)NC(=O)C(N)Cc2c[nH]c3ccccc23)c1)C(N)=O (centres undefined) (H-W[Orn][Orn][3Abz]W[Orn]-NH2; configuration not given here)" data_value=170
compound="N=C(N)NCCCC(N)C(=O)NC(Cc1c[nH]c2ccccc12)C(=O)NC(Cc1c[nH]c2ccccc12)C(=O)Nc1cccc(C(=O)NC(CCCNC(=N)N)C(=O)NC(CCCNC(=N)N)C(N)=O)c1 (centres undefined) (H-RWW[3Abz]RR-NH2; configuration not given here)" data_value=255

* * *

protocol-details: Induction of hemolysis in human RBC assessed as hemoglobin release after 1 hr by microtiter plate reader analysis
Format: cell-based, Erythrocyte
experimental-setup: erythrocyte, 1 h
Where a SMILES comes first, the peptide text is derived from it. [ ]: non-standard residue; d: D form. 3Abz = Nc1cccc(C(=O)O)c1
Attribute: HC10
recorded-endpoint: HC10 (µg/mL)

molecule="N=C(N)NCCCC(NC(=O)c1cccc(NC(=O)C(CCCNC(=N)N)NC(=O)C(N)Cc2c[nH]c3ccccc23)c1)C(N)=O (centres undefined) (H-WR[3Abz]R-NH2; configuration not given here)" data_value=300
molecule="N=C(N)NCCCC(NC(=O)C(Cc1c[nH]c2ccccc12)NC(=O)c1cccc(NC(=O)C(CCCNC(=N)N)NC(=O)C(CCCNC(=N)N)NC(=O)C(N)Cc2c[nH]c3ccccc23)c1)C(N)=O (centres undefined) (H-WRR[3Abz]WR-NH2; configuration not given here)" data_value=190
molecule="N=C(N)NCCCC(NC(=O)C(CCCNC(=N)N)NC(=O)c1cccc(NC(=O)C(Cc2c[nH]c3ccccc23)NC(=O)C(CCCNC(=N)N)NC(=O)C(N)Cc2c[nH]c3ccccc23)c1)C(N)=O (centres undefined) (H-WRW[3Abz]RR-NH2; configuration not given here)" data_value=140
molecule="N=C(N)NCCCC(NC(=O)C(Cc1c[nH]c2ccccc12)NC(=O)C(Cc1c[nH]c2ccccc12)NC(=O)C(CCCNC(=N)N)NC(=O)C(N)Cc1c[nH]c2ccccc12)C(N)=O (centres undefined) (H-WRWWR-NH2; configuration not given here)" data_value=60

* * *

protocol-details: Retention time of the compound by HPLC analysis
Format: physicochemical
Where a SMILES comes first, the peptide text is derived from it. [ ]: non-standard residue; d: D form. 3Abz = Nc1cccc(C(=O)O)c1; Orn = NCCC[CH](N)C(=O)O
Measured Retention_time accompanies every entry in the list below.
recorded-endpoint: Retention_time (min)

compound="NCCCC(NC(=O)C(Cc1c[nH]c2ccccc12)NC(=O)C(Cc1c[nH]c2ccccc12)NC(=O)C(CCCN)NC(=O)C(N)Cc1c[nH]c2ccccc12)C(N)=O (stereo unspecified) (H-W[Orn]WW[Orn]-NH2; configuration not given here)" recorded_endpoint=Retention_time data_value=28.309
compound="N=C(N)NCCCC(NC(=O)C(Cc1c[nH]c2ccccc12)NC(=O)c1cccc(NC(=O)C(CCCNC(=N)N)NC(=O)C(CCCNC(=N)N)NC(=O)C(N)Cc2c[nH]c3ccccc23)c1)C(N)=O (stereo unspecified) (H-WRR[3Abz]WR-NH2; configuration not given here)" recorded_endpoint=Retention_time data_value=27.66
compound="N=C(N)NCCCC(NC(=O)C(Cc1ccccc1)NC(=O)c1cccc(NC(=O)C(Cc2ccccc2)NC(=O)C(CCCNC(=N)N)NC(=O)C(N)Cc2ccccc2)c1)C(N)=O (stereo unspecified) (H-FRF[3Abz]FR-NH2; configuration not given here)" recorded_endpoint=Retention_time data_value=26.225
compound="N=C(N)NCCCC(NC(=O)C(CCCNC(=N)N)NC(=O)c1cccc(NC(=O)C(Cc2c[nH]c3ccccc23)NC(=O)C(CCCNC(=N)N)NC(=O)C(N)Cc2c[nH]c3ccccc23)c1)C(N)=O (stereo unspecified) (H-WRW[3Abz]RR-NH2; configuration not given here)" recorded_endpoint=Retention_time data_value=27.324
compound="NCCCC(NC(=O)C(Cc1ccccc1)NC(=O)c1cccc(NC(=O)C(Cc2ccccc2)NC(=O)C(CCCN)NC(=O)C(N)Cc2ccccc2)c1)C(N)=O (stereo unspecified) (H-F[Orn]F[3Abz]F[Orn]-NH2; configuration not given here)" recorded_endpoint=Retention_time data_value=25.038
compound="N=C(N)NCCCC(NC(=O)C(CCCNC(=N)N)NC(=O)c1cccc(NC(=O)C(CCCNC(=N)N)NC(=O)C(Cc2c[nH]c3ccccc23)NC(=O)C(N)Cc2c[nH]c3ccccc23)c1)C(N)=O (stereo unspecified) (H-WWR[3Abz]RR-NH2; configuration not given here)" recorded_endpoint=Retention_time data_value=27.34
compound="N=C(N)NCCCC(NC(=O)C(Cc1c[nH]c2ccccc12)NC(=O)C(Cc1c[nH]c2ccccc12)NC(=O)C(CCCNC(=N)N)NC(=O)C(N)Cc1c[nH]c2ccccc12)C(N)=O (stereo unspecified) (H-WRWWR-NH2; configuration not given here)" recorded_endpoint=Retention_time data_value=30.604
compound="N=C(N)NCCCC(N)C(=O)NC(CCCNC(=N)N)C(=O)NC(Cc1ccccc1)C(=O)Nc1cccc(C(=O)NC(Cc2ccccc2)C(=O)NC(CCCNC(=N)N)C(N)=O)c1 (stereo unspecified) (H-RRF[3Abz]FR-NH2; configuration not given here)" recorded_endpoint=Retention_time data_value=24.871
compound="NCCCC(N)C(=O)NC(Cc1c[nH]c2ccccc12)C(=O)Nc1cccc(C(=O)NC(Cc2c[nH]c3ccccc23)C(=O)NC(CCCN)C(N)=O)c1 (stereo unspecified) (H-[Orn]W[3Abz]W[Orn]-NH2; configuration not given here)" recorded_endpoint=Retention_time data_value=24.231
compound="N=C(N)NCCCC(NC(=O)c1cccc(NC(=O)C(CCCNC(=N)N)NC(=O)C(N)Cc2c[nH]c3ccccc23)c1)C(N)=O (stereo unspecified) (H-WR[3Abz]R-NH2; configuration not given here)" recorded_endpoint=Retention_time data_value=24.184
compound="N=C(N)NCCCC(N)C(=O)NC(Cc1c[nH]c2ccccc12)C(=O)Nc1cccc(C(=O)NC(Cc2c[nH]c3ccccc23)C(=O)NC(CCCNC(=N)N)C(N)=O)c1 (stereo unspecified) (H-RW[3Abz]WR-NH2; configuration not given here)" recorded_endpoint=Retention_time data_value=23.89
compound="NCCCC(NC(=O)C(Cc1c[nH]c2ccccc12)NC(=O)c1cccc(NC(=O)C(Cc2c[nH]c3ccccc23)NC(=O)C(CCCN)NC(=O)C(N)Cc2c[nH]c3ccccc23)c1)C(N)=O (stereo unspecified) (H-W[Orn]W[3Abz]W[Orn]-NH2; configuration not given here)" recorded_endpoint=Retention_time data_value=25.378
compound="NCCCC(NC(=O)C(Cc1c[nH]c2ccccc12)NC(=O)c1cccc(NC(=O)C(CCCN)NC(=O)C(CCCN)NC(=O)C(N)Cc2c[nH]c3ccccc23)c1)C(N)=O (stereo unspecified) (H-W[Orn][Orn][3Abz]W[Orn]-NH2; configuration not given here)" recorded_endpoint=Retention_time data_value=24.193
compound="NCCCC(NC(=O)C(CCCN)NC(=O)c1cccc(NC(=O)C(Cc2c[nH]c3ccccc23)NC(=O)C(CCCN)NC(=O)C(N)Cc2c[nH]c3ccccc23)c1)C(N)=O (stereo unspecified) (H-W[Orn]W[3Abz][Orn][Orn]-NH2; configuration not given here)" recorded_endpoint=Retention_time data_value=24.782
compound="N=C(N)NCCCC(N)C(=O)NC(Cc1c[nH]c2ccccc12)C(=O)NC(CCCNC(=N)N)C(=O)Nc1cccc(C(=O)NC(Cc2c[nH]c3ccccc23)C(=O)NC(CCCNC(=N)N)C(N)=O)c1 (stereo unspecified) (H-RWR[3Abz]WR-NH2; configuration not given here)" recorded_endpoint=Retention_time data_value=27.446
compound="N=C(N)NCCCC(NC(=O)C(Cc1c[nH]c2ccccc12)NC(=O)c1cccc(NC(=O)C(Cc2c[nH]c3ccccc23)NC(=O)C(CCCNC(=N)N)NC(=O)C(N)Cc2c[nH]c3ccccc23)c1)C(N)=O (stereo unspecified) (H-WRW[3Abz]WR-NH2; configuration not given here)" recorded_endpoint=Retention_time data_value=27.34
